Molecular target: T1, monkey IL-25 expressed with a C-terminal myc-myc-hexahistidine tag (M. fascicularis (cynomolgus monkey))
T1 construct: also called monkey IL-25-MMH; MfIL-25-MMH
T1 chain: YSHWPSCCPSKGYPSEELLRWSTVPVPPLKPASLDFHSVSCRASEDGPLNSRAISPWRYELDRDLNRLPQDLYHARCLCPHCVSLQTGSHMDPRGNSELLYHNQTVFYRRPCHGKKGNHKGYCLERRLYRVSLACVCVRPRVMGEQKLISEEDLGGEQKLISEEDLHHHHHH
Assay: SPR Biacore, captured mAb, 25°C;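 further: Real-time surface plasmon resonance on a Biacore 4000, with IL-25-MMH binding to purified anti-IL-25 antibodies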
Readout Kind: kon (M⁻¹ s⁻¹)
I only need the number, in M⁻¹ s⁻¹, no unit after it.

Look up kon of H4H10861P (antibody, human IgG4, V domains shown) VH: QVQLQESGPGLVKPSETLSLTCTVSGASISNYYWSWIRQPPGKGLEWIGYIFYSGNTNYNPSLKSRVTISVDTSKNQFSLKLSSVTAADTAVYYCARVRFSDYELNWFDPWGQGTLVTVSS VL: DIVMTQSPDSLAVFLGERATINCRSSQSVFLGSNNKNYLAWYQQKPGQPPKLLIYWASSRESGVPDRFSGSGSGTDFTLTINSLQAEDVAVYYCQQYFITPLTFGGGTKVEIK and report it.
3.26e+06

Look up kon of H4H10871P (antibody, human IgG4, V domains shown) VH: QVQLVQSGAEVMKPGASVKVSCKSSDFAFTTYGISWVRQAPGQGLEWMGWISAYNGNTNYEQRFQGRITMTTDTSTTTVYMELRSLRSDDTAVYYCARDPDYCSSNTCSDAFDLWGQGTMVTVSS VL: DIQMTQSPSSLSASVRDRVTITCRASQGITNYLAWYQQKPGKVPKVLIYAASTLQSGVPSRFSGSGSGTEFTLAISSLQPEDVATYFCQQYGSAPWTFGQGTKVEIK and report it.
628000

Look up kon of H4H10907P (antibody, human IgG4, V domains shown) VH: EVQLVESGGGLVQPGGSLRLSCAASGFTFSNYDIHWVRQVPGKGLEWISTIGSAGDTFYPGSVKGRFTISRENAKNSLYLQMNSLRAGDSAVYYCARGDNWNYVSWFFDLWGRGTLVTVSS VL: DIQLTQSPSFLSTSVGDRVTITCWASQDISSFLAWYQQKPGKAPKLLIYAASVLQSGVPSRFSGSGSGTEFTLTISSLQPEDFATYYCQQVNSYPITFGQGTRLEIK and report it.
1.39e+06

Where do the numbers come from? From patent US20160083466A1.
